Data provenance: paper PMC8584244

assayed-target: hCA II (Homo sapiens, UniProt P00918)
metric-name: Ki

Exam item: Hello, I am looking for reported Ki with hCA II (Homo sapiens, UniProt P00918) for Cc1ccc(C(C)C)c(O)c1 [thymol] . Could you help?
Marked response: > 100 µM
